- System: Escherichia coli TOP10
- protocol: shrunken log2 fold change of peptide-encoding DNA abundance (4.5 h post-induction vs induction); higher = less antimicrobial activity (less host growth inhibition)
- experimental.parameters: time post-induction: 4.5 h; library: site-saturation at positions 5, 18, 19, 20
The following sequences are shown together with reported shrunken log2 fold change values.
parameter.measured: shrunken log2 fold change

{"columns": ["sequence.entry", "parameter.measured", "recorded.value"],
 "data": [
  ["RRIRLRPPRLPRPRPRPKFQPRP", "shrunken log2 fold change", -0.113],
  ["RRIRKRPPRLPRPRPRPRVIPRP", "shrunken log2 fold change", 0.0832],
  ["RRIRGRPPRLPRPRPRPRRAPRP", "shrunken log2 fold change", 0.963],
  ["RRIRGRPPRLPRPRPRPECTPRP", "shrunken log2 fold change", 2.08],
  ["RRIRHRPPRLPRPRPRPPKHPRP", "shrunken log2 fold change", 0.2],
  ["RRIRARPPRLPRPRPRPHQEPRP", "shrunken log2 fold change", 0.568],
  ["RRIRQRPPRLPRPRPRPIIFPRP", "shrunken log2 fold change", -0.271],
  ["RRIRARPPRLPRPRPRPHTNPRP", "shrunken log2 fold change", -0.227],
  ["RRIRWRPPRLPRPRPRPNRKPRP", "shrunken log2 fold change", -0.239],
  ["RRIRQRPPRLPRPRPRPRIYPRP", "shrunken log2 fold change", -0.159],
  ["RRIRERPPRLPRPRPRPVRPPRP", "shrunken log2 fold change", 0.849],
  ["RRIRGRPPRLPRPRPRPKEFPRP", "shrunken log2 fold change", -0.0157],
  ["RRIRYRPPRLPRPRPRPENAPRP", "shrunken log2 fold change", 0.0607],
  ["RRIRDRPPRLPRPRPRPYLIPRP", "shrunken log2 fold change", -0.387],
  ["RRIRCRPPRLPRPRPRPGWCPRP", "shrunken log2 fold change", -0.0717],
  ["RRIRMRPPRLPRPRPRPMCMPRP", "shrunken log2 fold change", -0.179],
  ["RRIRWRPPRLPRPRPRPHIYPRP", "shrunken log2 fold change", -0.358],
  ["RRIRTRPPRLPRPRPRPHIKPRP", "shrunken log2 fold change", -0.616],
  ["RRIRIRPPRLPRPRPRPFDQPRP", "shrunken log2 fold change", -0.385],
  ["RRIRCRPPRLPRPRPRPHAKPRP", "shrunken log2 fold change", -0.446],
  ["RRIRRRPPRLPRPRPRPPRFPRP", "shrunken log2 fold change", 1.17],
  ["RRIRMRPPRLPRPRPRPVQLPRP", "shrunken log2 fold change", 0.0278],
  ["RRIRCRPPRLPRPRPRPIWYPRP", "shrunken log2 fold change", -0.564],
  ["RRIRERPPRLPRPRPRPYPMPRP", "shrunken log2 fold change", -0.172],
  ["RRIRVRPPRLPRPRPRPKSGPRP", "shrunken log2 fold change", 0.148],
  ["RRIRCRPPRLPRPRPRPIMHPRP", "shrunken log2 fold change", -0.135],
  ["RRIRPRPPRLPRPRPRPCYWPRP", "shrunken log2 fold change", -0.294],
  ["RRIRTRPPRLPRPRPRPEDHPRP", "shrunken log2 fold change", -0.0554],
  ["RRIRLRPPRLPRPRPRPTYFPRP", "shrunken log2 fold change", -0.451],
  ["RRIRQRPPRLPRPRPRPPCTPRP", "shrunken log2 fold change", -0.0301],
  ["RRIRWRPPRLPRPRPRPRSRPRP", "shrunken log2 fold change", 0.385],
  ["RRIRIRPPRLPRPRPRPFSYPRP", "shrunken log2 fold change", 3.51],
  ["RRIRERPPRLPRPRPRPWQVPRP", "shrunken log2 fold change", 0.0371],
  ["RRIRGRPPRLPRPRPRPECCPRP", "shrunken log2 fold change", 1.52],
  ["RRIRPRPPRLPRPRPRPWIQPRP", "shrunken log2 fold change", 0.0178],
  ["RRIRRRPPRLPRPRPRPSWEPRP", "shrunken log2 fold change", 0.1],
  ["RRIRERPPRLPRPRPRPEHQPRP", "shrunken log2 fold change", 0.0588],
  ["RRIRSRPPRLPRPRPRPGMVPRP", "shrunken log2 fold change", 0.23],
  ["RRIRGRPPRLPRPRPRPDYPPRP", "shrunken log2 fold change", 0.121],
  ["RRIRERPPRLPRPRPRPGMRPRP", "shrunken log2 fold change", 0.471],
  ["RRIRLRPPRLPRPRPRPWHYPRP", "shrunken log2 fold change", -0.164],
  ["RRIRQRPPRLPRPRPRPGIPPRP", "shrunken log2 fold change", -0.0269],
  ["RRIRNRPPRLPRPRPRPPHQPRP", "shrunken log2 fold change", 0.0134],
  ["RRIRKRPPRLPRPRPRPWSLPRP", "shrunken log2 fold change", 0.0414],
  ["RRIRLRPPRLPRPRPRPFAPPRP", "shrunken log2 fold change", 0.263],
  ["RRIRMRPPRLPRPRPRPSKGPRP", "shrunken log2 fold change", -0.071],
  ["RRIRLRPPRLPRPRPRPIFSPRP", "shrunken log2 fold change", -0.182]
]}

====

- System: Escherichia coli TOP10
- protocol: shrunken log2 fold change of peptide-encoding DNA abundance (4.5 h post-induction vs induction); higher = less antimicrobial activity (less host growth inhibition)
- experimental.parameters: time post-induction: 4.5 h; library: site-saturation at positions 5, 18, 19, 20
Kindly return yes if reported shrunken log2 fold change is no lower than -0.01; return no if it is lower.

{"columns": ["sequence.entry", "category"],
 "data": [
  ["RRIRSRPPRLPRPRPRPLPEPRP", "yes"],
  ["RRIRPRPPRLPRPRPRPLKSPRP", "no"],
  ["RRIRIRPPRLPRPRPRPIWDPRP", "no"],
  ["RRIRHRPPRLPRPRPRPFPIPRP", "yes"],
  ["RRIRRRPPRLPRPRPRPHWEPRP", "yes"],
  ["RRIRNRPPRLPRPRPRPNMIPRP", "no"],
  ["RRIRIRPPRLPRPRPRPYGDPRP", "yes"],
  ["RRIRKRPPRLPRPRPRPMVGPRP", "yes"],
  ["RRIRGRPPRLPRPRPRPGIPPRP", "yes"],
  ["RRIRGRPPRLPRPRPRPNQIPRP", "yes"],
  ["RRIRGRPPRLPRPRPRPKLQPRP", "yes"],
  ["RRIRIRPPRLPRPRPRPTEMPRP", "yes"],
  ["RRIRERPPRLPRPRPRPFMDPRP", "no"],
  ["RRIRKRPPRLPRPRPRPFETPRP", "yes"],
  ["RRIRSRPPRLPRPRPRPCPHPRP", "no"]
]}

====

- Test system: Escherichia coli TOP10
- protocol: shrunken log2 fold change of peptide-encoding DNA abundance (4.5 h post-induction vs induction); higher = less antimicrobial activity (less host growth inhibition)
- experimental.parameters: time post-induction: 4.5 h; library: site-saturation at positions 5, 18, 19, 20
This section presents sequences with their documented shrunken log2 fold change values.
parameter.measured: shrunken log2 fold change

{"columns": ["sequence.entry", "recorded.value"],
 "data": [
  ["RRIRPRPPRLPRPRPRPENFPRP", 0.0102],
  ["RRIRLRPPRLPRPRPRPGNQPRP", -0.0104],
  ["RRIRWRPPRLPRPRPRPSAAPRP", 0.921],
  ["RRIRMRPPRLPRPRPRPIVEPRP", 0.456],
  ["RRIRGRPPRLPRPRPRPIMMPRP", -0.0902],
  ["RRIRGRPPRLPRPRPRPHSGPRP", -0.0558],
  ["RRIRHRPPRLPRPRPRPQFFPRP", -0.619],
  ["RRIRVRPPRLPRPRPRPHPYPRP", -1.08],
  ["RRIRMRPPRLPRPRPRPHEMPRP", 0.0891],
  ["RRIRDRPPRLPRPRPRPVKKPRP", -0.0221],
  ["RRIRVRPPRLPRPRPRPPAMPRP", 0.246],
  ["RRIRTRPPRLPRPRPRPCMIPRP", -0.546],
  ["RRIRIRPPRLPRPRPRPHDVPRP", 0.000407],
  ["RRIRYRPPRLPRPRPRPEHRPRP", 0.0623],
  ["RRIRPRPPRLPRPRPRPHRTPRP", -0.0599],
  ["RRIRHRPPRLPRPRPRPWETPRP", -0.141],
  ["RRIRTRPPRLPRPRPRPDQWPRP", -0.00805]
]}

====

- System: Escherichia coli TOP10;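 also: peptides expressed intracellularly from a pBAD plasmid library in pooled LB shake-flask culture, induced with 0.3% L-arabinose, DNA abundance read by NGS, three biological replicates, DESeq2 with apeglm shrinkage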
- protocol: shrunken log2 fold change of peptide-encoding DNA abundance (4.5 h post-induction vs induction); higher = less antimicrobial activity (less host growth inhibition)
- experimental.parameters: time post-induction: 4.5 h; library: site-saturation at positions 5, 18, 19, 20
parameter.measured: shrunken log2 fold change

{"columns": ["sequence.entry", "parameter.measured", "recorded.value"],
 "data": [
  ["RRIRVRPPRLPRPRPRPLKHPRP", "shrunken log2 fold change", -0.486],
  ["RRIRCRPPRLPRPRPRPKDFPRP", "shrunken log2 fold change", -0.0611],
  ["RRIRHRPPRLPRPRPRPTATPRP", "shrunken log2 fold change", 0.39],
  ["RRIRKRPPRLPRPRPRPNREPRP", "shrunken log2 fold change", 0.0158],
  ["RRIRKRPPRLPRPRPRPGKLPRP", "shrunken log2 fold change", -0.208],
  ["RRIRQRPPRLPRPRPRPVIGPRP", "shrunken log2 fold change", -0.0941],
  ["RRIRSRPPRLPRPRPRPAAYPRP", "shrunken log2 fold change", 0.269],
  ["RRIRPRPPRLPRPRPRPWWMPRP", "shrunken log2 fold change", 0.0483],
  ["RRIRQRPPRLPRPRPRPEFCPRP", "shrunken log2 fold change", 0.0723],
  ["RRIRCRPPRLPRPRPRPKMDPRP", "shrunken log2 fold change", -0.0622],
  ["RRIRGRPPRLPRPRPRPYYSPRP", "shrunken log2 fold change", -0.207],
  ["RRIRARPPRLPRPRPRPCANPRP", "shrunken log2 fold change", 0.102],
  ["RRIRIRPPRLPRPRPRPMYDPRP", "shrunken log2 fold change", -0.726],
  ["RRIRIRPPRLPRPRPRPPRKPRP", "shrunken log2 fold change", 0.0691],
  ["RRIRWRPPRLPRPRPRPWEIPRP", "shrunken log2 fold change", 0.124],
  ["RRIRWRPPRLPRPRPRPRIYPRP", "shrunken log2 fold change", 0.068],
  ["RRIRGRPPRLPRPRPRPHHAPRP", "shrunken log2 fold change", 0.254],
  ["RRIRGRPPRLPRPRPRPEHPPRP", "shrunken log2 fold change", 0.281],
  ["RRIRERPPRLPRPRPRPGAPPRP", "shrunken log2 fold change", 0.301],
  ["RRIRQRPPRLPRPRPRPVHHPRP", "shrunken log2 fold change", 0.04],
  ["RRIRPRPPRLPRPRPRPRSSPRP", "shrunken log2 fold change", 0.151],
  ["RRIRARPPRLPRPRPRPGLMPRP", "shrunken log2 fold change", 0.524],
  ["RRIRLRPPRLPRPRPRPQSKPRP", "shrunken log2 fold change", -0.224],
  ["RRIRTRPPRLPRPRPRPVPGPRP", "shrunken log2 fold change", 0.151],
  ["RRIRDRPPRLPRPRPRPEGTPRP", "shrunken log2 fold change", -0.042]
]}

Each recorded value in this set is attributed to the supplement of paper PMC9112550.
